src = paper PMC3954597

Test System: T1, wild-type PTP1B catalytic domain (amino acids 1-321) (human) (UniProt P18031)
T1 sequence: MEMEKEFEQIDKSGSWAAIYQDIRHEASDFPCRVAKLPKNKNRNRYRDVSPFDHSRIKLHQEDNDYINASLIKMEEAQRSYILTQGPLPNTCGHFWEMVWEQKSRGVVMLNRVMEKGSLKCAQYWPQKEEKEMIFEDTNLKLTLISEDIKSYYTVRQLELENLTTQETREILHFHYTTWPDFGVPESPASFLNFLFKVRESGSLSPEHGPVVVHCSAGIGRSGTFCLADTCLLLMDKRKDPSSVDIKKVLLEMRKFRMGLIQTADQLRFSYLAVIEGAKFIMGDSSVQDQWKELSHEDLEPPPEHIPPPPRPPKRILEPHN
Square brackets hold non-standard residues; d marks the D form. pY = N[C@@H](Cc1ccc(OP(=O)(O)O)cc1)C(=O)O
Assay Endpoint: KM, steady-state dephosphorylation of the pY peptide (µM)
All answers are understood in µM, so give the number only.

Completed entries (count: 2):
Binder	Measurement
Ac-AA[pY]DDIDE-NH2 (SMILES CC[C@H](C)[C@H](NC(=O)[C@H](CC(=O)O)NC(=O)[C@H](CC(=O)O)NC(=O)[C@H](Cc1ccc(OP(=O)(O)O)cc1)NC(=O)[C@H](C)NC(=O)[C@H](C)NC(C)=O)C(=O)N[C@@H](CC(=O)O)C(=O)N[C@@H](CCC(=O)O)C(N)=O) [Ac-AApYDDIDE-NH2]	3.5
Ac-AA[pY]AADDA-NH2 (SMILES CC(=O)N[C@@H](C)C(=O)N[C@@H](C)C(=O)N[C@@H](Cc1ccc(OP(=O)(O)O)cc1)C(=O)N[C@@H](C)C(=O)N[C@@H](C)C(=O)N[C@@H](CC(=O)O)C(=O)N[C@@H](CC(=O)O)C(=O)N[C@@H](C)C(N)=O) [Ac-AApYAADDA-NH2]	2.6

Consider the record given below.
Measured KM, steady-state dephosphorylation of the pY peptide, Ac-ARKRI[pY]AA-NH2 (SMILES CC[C@H](C)[C@H](NC(=O)[C@H](CCCNC(=N)N)NC(=O)[C@H](CCCCN)NC(=O)[C@H](CCCNC(=N)N)NC(=O)[C@H](C)NC(C)=O)C(=O)N[C@@H](Cc1ccc(OP(=O)(O)O)cc1)C(=O)N[C@@H](C)C(=O)N[C@@H](C)C(N)=O) [Ac-ARKRIpYAA-NH2] : 166
